Recorded Bliss excess values for a group of molecules are listed next.
# Test system: GRANTA-519 (B-Cell Non-Hodgkin's Lymphoma);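 further: after 72 h of two-drug dosing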
# assay details: Bliss excess, mean over the matrix (fraction); higher = more synergy
readout type: Bliss excess

1. CCN(CCO)CCCOc1ccc2c(Nc3cc(CC(=O)Nc4cccc(F)c4)[nH]n3)ncnc2c1 [AZD2811] + O=C(c1cc(Cc2n[nH]c(=O)c3ccccc23)ccc1F)N1CCN(C(=O)C2CC2)CC1 [Olaparib] (first compound max 1 µM, 7x7, partner max 10 µM) ... 0.0274
2. COc1nnc2ccc(N3CCC(c4ccc(OCCN5CCN(C)C(=O)[C@H]5C)cc4)CC3)nn12 [AZD5153] + CC1(C)CCC(CN2CCN(c3ccc(C(=O)NS(=O)(=O)c4ccc(NCC5CCOCC5)c([N+](=O)[O-])c4)c(Oc4cnc5[nH]ccc5c4)c3)CC2)=C(c2ccc(Cl)cc2)C1 [Venetoclax] (first compound max 1 µM, 7x7, partner max 1 µM) ... 0.0237
3. C=CCn1c(=O)c2cnc(Nc3ccc(N4CCN(C)CC4)cc3)nc2n1-c1cccc(C(C)(C)O)n1 [AZD1775] + O=C(c1cc(Cc2n[nH]c(=O)c3ccccc23)ccc1F)N1CCN(C(=O)C2CC2)CC1 [Olaparib] (first compound max 1 µM, partner max 10 µM) ... -0.0679

Where do these numbers come from? They come from the supplement of paper PMC11061612.
